molecular target: T1, wild type FGFR3 expressed on cells (UniProt P22607 23-806, limits assumed); assay: FACS
T1 construct: whole, on cells; the myeloma cell lines and patient cells are human; also called WT FGFR3; B9-FGFR3^WT
T1 sequence (P22607 23-806 limits assumed): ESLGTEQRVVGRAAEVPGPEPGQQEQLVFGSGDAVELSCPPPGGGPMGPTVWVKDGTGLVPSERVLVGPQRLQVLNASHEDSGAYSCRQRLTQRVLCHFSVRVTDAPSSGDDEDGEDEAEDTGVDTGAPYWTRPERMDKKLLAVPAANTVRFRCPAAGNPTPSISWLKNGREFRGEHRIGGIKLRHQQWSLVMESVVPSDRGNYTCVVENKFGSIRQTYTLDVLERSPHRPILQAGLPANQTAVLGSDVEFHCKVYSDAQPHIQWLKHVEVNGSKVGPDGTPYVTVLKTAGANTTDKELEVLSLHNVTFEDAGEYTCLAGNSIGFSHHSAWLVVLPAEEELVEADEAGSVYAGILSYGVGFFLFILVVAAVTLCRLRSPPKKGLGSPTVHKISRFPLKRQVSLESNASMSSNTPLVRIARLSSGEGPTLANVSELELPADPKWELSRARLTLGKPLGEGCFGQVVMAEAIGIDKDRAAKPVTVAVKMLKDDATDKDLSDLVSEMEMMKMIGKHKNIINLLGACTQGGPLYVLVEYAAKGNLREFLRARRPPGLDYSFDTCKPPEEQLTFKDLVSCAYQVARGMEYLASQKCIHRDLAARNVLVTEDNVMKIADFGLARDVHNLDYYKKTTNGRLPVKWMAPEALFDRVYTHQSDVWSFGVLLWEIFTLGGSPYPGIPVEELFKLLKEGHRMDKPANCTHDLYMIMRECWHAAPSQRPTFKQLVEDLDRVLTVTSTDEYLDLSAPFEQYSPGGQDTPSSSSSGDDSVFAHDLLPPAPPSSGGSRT
Quantity Name: pKd
Quick note: pKd values are minus log10 of concentrations in mol/L.

Task: Can you look up the measured pKd of PRO-002 (Fab, V domains shown, HuCAL clone; the IC50 may be of the Fab-dHLX format) VH: QVQLVQSGAEVKKPGASVKVSCKASGYTFTSYYMHWVRQAPGQGLEWMGWINPNSGGTNYAQKFQGRVTMTRDTSISTAYMELSSLRSEDTAVYYCARDFLGYEFDYWGQGTLVTVSS VL: DIELTQPPSVSVAPGQTARISCSGDALGDKYASWYQQKPGQAPVLVIYDDSDRPSGIPERFSGSNSGNTATLTISGTQAEDEADYYCQSYDYSADYVFGGGTKLTVLG for me?
Output: 7.37
